# STUDY SYSTEM: T1, HCV Core1-169 recombinant antigen (hepatitis C virus (HCV-1), UniProt P26664 1-169)
# T1 sequence: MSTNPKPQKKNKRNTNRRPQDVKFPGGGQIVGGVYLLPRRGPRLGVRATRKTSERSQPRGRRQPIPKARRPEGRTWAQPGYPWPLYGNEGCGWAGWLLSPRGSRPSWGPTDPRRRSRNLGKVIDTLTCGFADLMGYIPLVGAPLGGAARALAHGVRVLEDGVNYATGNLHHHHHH
# ASSAY NAME: sandwich EIA, 25 ng/ml core1-169; capture mAb 208A-557
ASSAY METRIC: OD492 nm

208B-395-334 monoclonal antibody (antibody, V domains shown) VH: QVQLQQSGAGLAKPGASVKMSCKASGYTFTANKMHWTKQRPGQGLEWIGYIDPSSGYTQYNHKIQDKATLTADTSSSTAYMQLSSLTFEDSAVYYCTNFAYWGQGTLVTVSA VL: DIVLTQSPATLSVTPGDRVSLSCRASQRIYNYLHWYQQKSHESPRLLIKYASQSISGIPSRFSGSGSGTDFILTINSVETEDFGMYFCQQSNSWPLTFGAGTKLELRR ... 0.21 OD492
208A-207-271 monoclonal antibody (antibody, V domains shown) VH: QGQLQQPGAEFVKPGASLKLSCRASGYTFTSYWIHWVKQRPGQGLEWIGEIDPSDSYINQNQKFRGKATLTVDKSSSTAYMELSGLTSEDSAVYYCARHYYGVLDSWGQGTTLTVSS VL: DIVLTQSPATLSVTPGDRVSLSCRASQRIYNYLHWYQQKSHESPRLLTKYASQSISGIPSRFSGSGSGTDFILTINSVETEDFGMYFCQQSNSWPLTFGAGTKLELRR ... 0.82 OD492
HCV 208A-692 monoclonal antibody (antibody, V domains shown) VH: QGQMQQSGAELAKPGASVKLSCKTSGFTFSSSYISWLKQKPGQSLEWIAWIFAGTGNTNYNQKFTDKAQLTVDTSSSTAYMQLSSLTTEDSAIYYCAISGTGFTYWGQGTLVTVSA VL: EVLMTQSPLSLPVSLGDQASISCRSSQSLEHSNGNTYLEWFLQRPGQPPKLLIYKVSSRFSGVPDRFSGSGSGTDFTLKISRVEAEDLGVYYCFQGSHVPFTFGSGTKLAIKR ... 0.53 OD492

Incoming: Find the measured OD492 nm of HCV 208A-293 monoclonal antibody (antibody, V domains shown) VH: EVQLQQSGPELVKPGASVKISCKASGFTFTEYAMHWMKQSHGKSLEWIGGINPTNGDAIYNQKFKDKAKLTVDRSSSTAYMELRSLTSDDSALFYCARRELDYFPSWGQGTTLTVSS VL: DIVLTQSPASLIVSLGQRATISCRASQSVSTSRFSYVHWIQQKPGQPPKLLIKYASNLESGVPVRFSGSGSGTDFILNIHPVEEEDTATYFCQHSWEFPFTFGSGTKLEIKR and report it.
Outgoing: 0.52 OD492

Incoming: Find the measured OD492 nm of HCV 208A-557 monoclonal antibody (antibody, V domains shown) VH: QGQMQQSGAELVKPGASVKLSCKTSGFTFSSSYISWLKQKPGQSLEWIAWIYAGTGNTNYNQKFTDKAQLTVDTSSSTAYMQLSSLTTEDSAIYYCAISGTGFTYWGQGTLVTVSA VL: DIALTQSPASLAVSLGQRATISCRASQSVSTSRYSYMHWYQQKPGQPPELLIKYASNLESGVPARFSGSGSGTDFTLNIHPVGEEDTATYYCQHSWDFPFTFGSGTKLEIKR and report it.
Outgoing: 0.32 OD492

Incoming: Find the measured OD492 nm of 208B-612-226 monoclonal antibody (antibody, V domains shown) VH: EVQLQQSGPELVKPGASVKMSCKASGYRFTSYVMHWVRQKPGQGLEWIGYIDPHNDDTKYSEKFRGKATLTSDKSSTTAYMELSSLTSEDSAVYYCVRYSYDRDYSPMDYWGQGTSVTVSS VL: QIVLTQSPTLMSASPGEKVTMTCSASSTVTYIYWYQQKPGSSPRLWMYDTFNLVSGVPARFSGSRSGTSYFLTISSMEGEDAATYYCQQYSDSPYTFGGGTKLEIKR and report it.
Outgoing: 0.23 OD492

Incoming: Find the measured OD492 nm of HCV 208B-1096 monoclonal antibody (antibody, V domains shown) VH: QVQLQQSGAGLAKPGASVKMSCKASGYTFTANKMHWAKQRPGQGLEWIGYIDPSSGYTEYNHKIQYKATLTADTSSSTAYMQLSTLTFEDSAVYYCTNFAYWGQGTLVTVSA VL: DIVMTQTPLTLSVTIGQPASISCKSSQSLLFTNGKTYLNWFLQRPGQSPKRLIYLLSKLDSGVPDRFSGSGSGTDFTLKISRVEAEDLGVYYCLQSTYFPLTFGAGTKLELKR and report it.
Outgoing: 0.17 OD492
